# Test system: Mus musculus
# assayProtocol: Inhibition of nicotine-induced antinociception in sc dosed acute pain mouse model by tail flick method
# Assay type: functional
Hi there, I'd appreciate the recorded AD50 for every entry that follows.
One number for each entry, in µg/kg.

Look over these answered cases.
Cl.Nc1ccc(-c2cncc(C3CC4CCC3N4)c2)cc1 (racemic)	1
Cl.O=[N+]([O-])c1cccc(-c2cc(C3CC4CCC3N4)cnc2F)c1 (racemic)	0.2
Cl.Fc1cccc(-c2cc(C3CC4CCC3N4)cnc2F)c1 (racemic)	5
c1cnc2cc3c(cc2n1)[C@@H]1CNC[C@H]3C1	0.2
Cl.Fc1ccc(-c2cc(C3CC4CCC3N4)cnc2F)cc1 (racemic)	0.5
COc1cccc(-c2cc(C3CC4CCC3N4)cnc2F)c1.Cl (racemic)	8
Cl.Cl.Fc1cccc(-c2cncc(C3CC4CCC3N4)c2)c1 (racemic)	3.1
Cl.Nc1ccc(-c2cc(C3CC4CCC3N4)cnc2F)cc1 (racemic)	5
Cl.Cl.O=[N+]([O-])c1ccc(-c2cncc(C3CC4CCC3N4)c2)cc1 (racemic)	47

Okay, next one:
Ask: Give reported AD50 value for Cl.Nc1cccc(-c2cc(C3CC4CCC3N4)cnc2F)c1 (racemic)
Reply: 9

Origin of values: ChEMBL document CHEMBL1143907
